Test system: NCI/ADR-RES ovarian
ASSAY_REMARKS: NCI tumour cell line growth inhibition, 48 h
# reported TGI; entries follow

{"MOLECULE": "CN1CCN(CCCOc2cccc3nc(Nc4cc(Cl)cc(Cl)c4)ccc23)CC1", "TGI": "3.29 µM"}
{"MOLECULE": "CCOC(=O)COc1cc(-c2ccccc2F)nc2cc3c(cc12)OCO3", "TGI": "> 100 µM"}
{"MOLECULE": "C[C@@H](O)[C@@H](C)Oc1nc(Nc2ccc(S(=N)(=O)C3CC3)cc2)ncc1C(F)(F)F (stereo not given in full)", "TGI": "28.5 µM"}
{"MOLECULE": "COc1ccc2c(c1)CC[C@@H]1[C@@H]2CC[C@]2(C)/C(=N/OCCN3CCCC3)CC[C@@H]12", "TGI": "28.7 µM"}
{"MOLECULE": "O=C(COc1ccc(/C=C2\\Oc3ccc4ccccc4c3C2=O)cc1)c1ccc([N+](=O)[O-])cc1", "TGI": "82.1 µM"}
{"MOLECULE": "Cc1ccsc1/C=N/NC1=NCCN1", "TGI": "> 100 µM"}
{"MOLECULE": "Nc1nc(=O)n(C2CC(O)C(CO)O2)cc1F (stereo not given)", "TGI": "> 100 µM"}
{"MOLECULE": "COc1cc(C2CC(C)(N3CCOCC3)Oc3cc4c(cc32)OCO4)cc(OC)c1OC (stereo not given)", "TGI": "> 100 µM"}
{"MOLECULE": "COC(CNC(=O)CNC(=O)c1ccc(C(F)(F)F)cc1)OC", "TGI": "> 100 µM"}
{"MOLECULE": "COc1ccccc1C1C2=C(COC2=O)Oc2cc3c(cc21)OCO3 (stereo not given)", "TGI": "> 39.8 µM"}
{"MOLECULE": "Cc1cc(S(=O)(=O)/N=C(\\N)Nc2cccc(O)c2)c(SCc2ccccc2)cc1Cl", "TGI": "70.2 µM"}
{"MOLECULE": "Clc1ccc(Nc2ncco2)cc1Cl", "TGI": "> 10 µM"}
{"MOLECULE": "NC(Cc1ccc(O)cn1)C(=O)NC(C(=O)O)c1ccccc1 (stereo not given)", "TGI": "> 100 µM"}
{"MOLECULE": "O=S(=O)(O)c1ccc2c(N=Nc3cccc4ccccc34)c(O)ccc2c1", "TGI": "> 100 µM"}
{"MOLECULE": "CC(=O)Nc1ccc(NC(=O)CC(=O)Nc2ccc(NC(C)=O)cc2)cc1", "TGI": "> 100 µM"}
{"MOLECULE": "CN1C(=O)N(C)C2(CCN(CC(CC3OCCO3)c3ccc(F)cc3)CC2)C1=O (stereo not given)", "TGI": "> 100 µM"}
{"MOLECULE": "CC/C=C\\C[C@H]1C/C=C2/C(=O)C=C[C@H]2C/C=C\\CCCC(=O)O1", "TGI": "> 50 µM"}
{"MOLECULE": "CCn1cnc(C[C@H](NC(=O)[C@H](CCCCNC(=O)Nc2cc(C(F)(F)F)cc(C(F)(F)F)c2)NC(=O)Nc2cc(C(F)(F)F)cc(C(F)(F)F)c2)C(=O)OC)c1", "TGI": "> 10 µM"}
{"MOLECULE": "C[C@@H]1CC[C@H]2[C@@H](C)C(O)O[C@@H]3O[C@]4(C)CC[C@@H]1[C@]32OO4 (stereo not given in full)", "TGI": "12 µM"}
{"MOLECULE": "COc1ccc(-c2nc(-c3ccc(OC)cc3)n(-c3ccccc3)n2)cc1", "TGI": "> 100 µM"}
{"MOLECULE": "CC1(C)OB(c2ccc(N(CCOS(C)(=O)=O)CCOS(C)(=O)=O)cc2)OC1(C)C", "TGI": "65.2 µM"}
{"MOLECULE": "N=c1c2sc3nc4ccccc4n3c2ncn1Cc1ccccc1", "TGI": "> 100 µM"}
{"MOLECULE": "NC(N)=NN=c1c(=O)c2ccccc2c1=O", "TGI": "31.7 µM"}
{"MOLECULE": "C[C@@H](C1CC[C@H]2[C@@H]3[C@@H]4O[C@@H]4[C@@]4(O)CC=CC(=O)[C@]4(C)[C@H]3C[C@H](O)[C@]12C)[C@H]1C[C@]2(C)O[C@]2(C)C(=O)O1 (stereo not given in full)", "TGI": "> 100 µM"}
{"MOLECULE": "CCOC(=O)c1c(N2CCCC2)[nH]c(=O)c(C(c2c(O)c(C(=O)OCC)c(N3CCCC3)[nH]c2=O)C(C)C)c1O", "TGI": "> 100 µM"}
{"MOLECULE": "Cc1cc2c(cc1Cl)SC(N(c1ccccc1Cl)S(=O)(=O)c1ccc(Br)s1)=NS2(=O)=O", "TGI": "41.3 µM"}
{"MOLECULE": "CNC(=O)c1cc(Oc2ccc3nc(NC(=O)Nc4ccc(CN5CCOCC5)c(C(F)(F)F)c4)sc3c2)ccn1", "TGI": "5.37 µM"}
{"MOLECULE": "CON(C)c1nc(N)c(C#N)c(C#N)c1C#N", "TGI": "> 10 µM"}
{"MOLECULE": "Cc1cccc(C(C)(C)C)c1NC(=O)C(C#N)C1=C(Cl)C(=O)c2ccccc2C1=O (stereo not given)", "TGI": "37.7 µM"}
{"MOLECULE": "CC(=N/NC(=S)N1CCCCCC1)/C(C)=N\\NC(=S)N1CCCCCC1", "TGI": "16.8 µM"}
{"MOLECULE": "Cc1nc2ccccn2c1NC(=O)NN1C(=O)CSC1c1ccc(Cl)cc1 (stereo not given)", "TGI": "> 100 µM"}
{"MOLECULE": "Nc1nc(Cl)cc(NCC2(CO)CCCCC2)n1", "TGI": "> 100 µM"}
{"MOLECULE": "CC1(CO)C(O)CCC2(C)C1CCC1CC3CC12CCC3(O)CO (stereo not given)", "TGI": "> 100 µM"}
{"MOLECULE": "CC(=O)C(N1CCCCC1)C(O)(C(F)(F)F)C(F)(F)F (stereo not given)", "TGI": "> 100 µM"}
{"MOLECULE": "COc1ccc2[nH]c(Cl)c(/C=C3/C(=O)Nc4ccccc43)c2c1", "TGI": "3.38 µM"}
{"MOLECULE": "Cc1ccc(S(=O)(=O)NC(=O)Nc2c(S(N)(=O)=O)cc(S(N)(=O)=O)c(Cl)c2Cl)cc1", "TGI": "> 100 µM"}
{"MOLECULE": "C=CC(=O)N[C@@H]1CN(c2nc(Nc3cn(C)nc3OC)c3ncn(C)c3n2)C[C@H]1F", "TGI": "> 100 µM"}
{"MOLECULE": "Cc1sc2c(c1C)C(=O)c1cccn1-2", "TGI": "> 100 µM"}
{"MOLECULE": "Cc1cc(OCc2nc(N)nc(N)c2-c2ccc(Cl)c(Cl)c2)ccc1[N+](=O)[O-]", "TGI": "18.6 µM"}
{"MOLECULE": "O=c1cc(-c2ccc(Cl)cc2)[nH]c2ccccc12", "TGI": "> 100 µM"}

Data origin, for the record: PubChem BioAssay (NCI)
